Tested on: MYB
Test: RT-qPCR splicing assay, MYB AJ/CJ mRNA
Assay type: cell-based
Settings: Homo sapiens, increase in alternative junction mRNA, A673 or K562 cells, 24 hours
Consider the following compounds; for each one, report its AC50.

Some solved entries appear below for comparison.
# COMPOUND, AC50
rows = [
    ("CC(C)(C)N[C@@H]1CCN(c2ccc3c(n2)OCc2cc(-c4cn[nH]c4)ccc2-3)C1", "100 to 1000 nM"),
    ("CN(c1ccc2c(n1)OCc1cc(-c3cn[nH]c3)c(F)cc1-2)C1CC(C)(C)NC(C)(C)C1", "1000 to 10000 nM"),
]

State the recorded AC50 for every item in the following list.
1. c1cnn(-c2ccc3c(c2)OCCc2nc(N[C@@H]4C[C@H]5CC[C@@H](C4)N5)ccc2-3)c1
2. c1cnn(-c2ccc3c(c2)COc2nc(O[C@@H]4C[C@H]5CC[C@@H](C4)N5)ccc2-3)c1
3. COc1cc(-c2ccc3c(c2)COc2nc(N4CCN[C@H](C5CC5)C4)ccc2-3)cnn1
4. COc1cc(-c2ccc3c(c2)COc2nc(N4CCC(N)CC4)ccc2-3)cnn1

> 10000 nM
1000 to 10000 nM
100 to 1000 nM
> 10000 nM

State the recorded AC50 for every item in the following list.
1. CN(c1ccc2c(n1)OCc1cc(-n3cccn3)ccc1-2)[C@@H]1C[C@H]2CCC[C@@H](C1)N2
2. COc1cc(-c2ccc3c(c2)COc2nc(N4CCNCC4)ccc2-3)cnn1
3. CCc1cc(-c2ccc3c(c2)COc2nc(N4CCC(NC(C)(C)C)C4)ccc2-3)cnn1 (stereo not drawn)
4. COc1cc(-c2cc3c(cc2F)-c2ccc(N(C)[C@@H]4C[C@H]5CC[C@@H](C4)N5)nc2OC3)cnn1
5. C[C@@H]1C[C@H](N(C)c2ccc3c(c2)OCc2cc(-c4cn[nH]c4)ccc2-3)CCN1
6. COc1cc(-c2ccc3c(c2)COc2nc(N(C)[C@H]4C[C@H]5COC[C@@H](C4)N5)ccc2-3)cnn1

1. < 100 nM
2. 100 to 1000 nM
3. > 10000 nM
4. < 100 nM
5. 1000 to 10000 nM
6. 1000 to 10000 nM

State the recorded AC50 for every item in the following list.
1. COc1cc(-c2ccc3c(c2)COc2nc(N4CCC(C)(NC(C)C)C4)ccc2-3)cnn1 (stereo not drawn)
2. COc1cc(-c2ccc3c(c2)COc2nc(N4CCC(NC(C)(C)C)CC4)ccc2-3)cnn1
3. CN(c1ccc2c(n1)OCc1cc(-c3cnc(=O)[nH]c3)ccc1-2)[C@@H]1C[C@H]2CC[C@@H](C1)N2
4. CN(c1ccc2c(n1)OCc1cc(-c3cn[nH]c3)ccc1-2)[C@@H]1C[C@H]2CC[C@@H](C1)N2
5. FC1(F)CC2CC(Oc3ccc4c(n3)OCc3cc(-n5nccn5)ccc3-4)CC1N2 (stereo not drawn)
6. CCN(c1ccc2c(n1)OCc1cc(-n3cccn3)ccc1-2)C1CCNCC1

1. 100 to 1000 nM
2. > 10000 nM
3. > 10000 nM
4. 1000 to 10000 nM
5. > 10000 nM
6. > 10000 nM

The measurements presented in this section are drawn from patent US20240400584A1.
